B1: PLAGL1 (parent)
chain: CKDFLCQFCAQRFGRKDHLTRHTK

variants of: B1; test: protein stability index of a GFP-peptide fusion (GPS, HEK-293T) (PSI 1-6); higher = more stable; conditions: c terminus: a fixed tail appended;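 note: lentivirally expressed fusions sorted by FACS into six bins by GFP to DsRed ratio, PSI derived from sequencing read proportions per bin multiplied by bin number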
ASSAY_METRIC: protein stability index

* R21V | 1.59
* G14T | 2.09
* A10R | 2.14
* L5F | 2.56
* C6S | 1.58
* H22N | 1.48
* L19M | 2.4
* F8D | 3.12
* D3M | 1.38
* D17I | 2.52
* G14C | 2.37
* K24A | 2.73
* C6F | 1.78
* F13S | 3.21
* F8G | 2.32
* L5V | 1.36
* R12F | 1.68
* T20G | 2.17
* T23C | 2.17
* G14L | 1.96
* R15M | 1.73
* D3G | 2.38
